- Assayed System: T1, full-length Sudan GP (GPFL) (Sudan virus (SUDV), UniProt Q7T9D9 33-650)
- T1 construct: also called Sudan GPFL; GP(S)FL
- T1 sequence: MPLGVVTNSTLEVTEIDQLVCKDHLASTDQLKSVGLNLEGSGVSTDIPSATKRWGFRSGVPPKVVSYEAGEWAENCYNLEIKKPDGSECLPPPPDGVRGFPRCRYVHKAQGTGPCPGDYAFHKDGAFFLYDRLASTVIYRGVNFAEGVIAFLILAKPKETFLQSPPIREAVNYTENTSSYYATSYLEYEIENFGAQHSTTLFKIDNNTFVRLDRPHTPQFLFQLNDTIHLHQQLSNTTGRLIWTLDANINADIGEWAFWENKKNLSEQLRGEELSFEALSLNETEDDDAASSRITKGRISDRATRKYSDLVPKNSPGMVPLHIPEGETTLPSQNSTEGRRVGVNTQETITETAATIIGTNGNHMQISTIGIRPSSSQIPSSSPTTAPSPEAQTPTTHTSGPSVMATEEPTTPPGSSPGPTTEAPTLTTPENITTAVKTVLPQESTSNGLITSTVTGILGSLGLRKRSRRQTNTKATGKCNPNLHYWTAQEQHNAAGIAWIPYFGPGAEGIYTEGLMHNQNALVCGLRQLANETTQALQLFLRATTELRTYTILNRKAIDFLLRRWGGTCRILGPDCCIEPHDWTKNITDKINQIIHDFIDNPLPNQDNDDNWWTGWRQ
- Assay Comment: BLI, Fab, pH 7.4
Field: koff. Provide a value for each of the binders that follow.
Please respond with the number in s⁻¹ and leave the unit unwritten.

Consider Fab generated from 377S (Fab, V domains shown) VH: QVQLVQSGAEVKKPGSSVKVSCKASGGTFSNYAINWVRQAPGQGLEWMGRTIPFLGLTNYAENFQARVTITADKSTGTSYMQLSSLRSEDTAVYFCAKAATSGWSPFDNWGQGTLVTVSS VL: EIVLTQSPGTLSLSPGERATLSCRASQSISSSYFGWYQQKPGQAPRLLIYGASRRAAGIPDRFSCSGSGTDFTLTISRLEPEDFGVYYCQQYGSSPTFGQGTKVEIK . Its measured koff is 0.000631

Consider Fab generated from 285S (Fab, V domains shown) VH: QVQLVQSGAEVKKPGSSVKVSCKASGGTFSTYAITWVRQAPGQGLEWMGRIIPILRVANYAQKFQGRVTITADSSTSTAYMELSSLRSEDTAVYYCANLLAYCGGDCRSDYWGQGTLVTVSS VL: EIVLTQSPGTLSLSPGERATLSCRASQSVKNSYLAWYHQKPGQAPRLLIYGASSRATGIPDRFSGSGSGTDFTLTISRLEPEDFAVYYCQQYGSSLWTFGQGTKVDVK . Its measured koff is 0.000258
